# Lookup of reported shrunken log2 fold change keyed by entry
- System: Escherichia coli TOP10
- Method: shrunken log2 fold change of peptide-encoding DNA abundance (4.5 h post-induction vs induction); higher = less antimicrobial activity (less host growth inhibition)
- Measurement conditions: time post-induction: 4.5 h; library: site-saturation at positions 5, 18, 19, 20
Number only, no unit.

INSERT INTO results (input_sequence, study_target, measured_metric, test_result) VALUES
  ('RRIRDRPPRLPRPRPRPDARPRP', 'Escherichia coli TOP10', 'shrunken log2 fold change', 1.31),
  ('RRIRWRPPRLPRPRPRPYKPPRP', 'Escherichia coli TOP10', 'shrunken log2 fold change', -0.539),
  ('RRIRQRPPRLPRPRPRPCWMPRP', 'Escherichia coli TOP10', 'shrunken log2 fold change', -0.408),
  ('RRIRVRPPRLPRPRPRPGKEPRP', 'Escherichia coli TOP10', 'shrunken log2 fold change', -0.0126);

# get_value(readout='shrunken log2 fold change', item= RRIRKRPPRLPRPRPRPKYNPRP )
-0.267

# get_value(readout='shrunken log2 fold change', item= RRIRFRPPRLPRPRPRPPHLPRP )
-0.0216

# get_value(readout='shrunken log2 fold change', item= RRIRIRPPRLPRPRPRPRKAPRP )
-0.000442

# get_value(readout='shrunken log2 fold change', item= RRIRYRPPRLPRPRPRPTDTPRP )
-0.392

# get_value(readout='shrunken log2 fold change', item= RRIRRRPPRLPRPRPRPREQPRP )
0.803

# get_value(readout='shrunken log2 fold change', item= RRIRIRPPRLPRPRPRPWYQPRP )
0.00187

# get_value(readout='shrunken log2 fold change', item= RRIRKRPPRLPRPRPRPYINPRP )
-0.627

# get_value(readout='shrunken log2 fold change', item= RRIRIRPPRLPRPRPRPTLVPRP )
0.0386

# get_value(readout='shrunken log2 fold change', item= RRIRPRPPRLPRPRPRPYRYPRP )
0.101

# get_value(readout='shrunken log2 fold change', item= RRIRDRPPRLPRPRPRPCCHPRP )
0.0218

# get_value(readout='shrunken log2 fold change', item= RRIRPRPPRLPRPRPRPVISPRP )
-0.00579

# get_value(readout='shrunken log2 fold change', item= RRIRPRPPRLPRPRPRPSCYPRP )
-0.332

# get_value(readout='shrunken log2 fold change', item= RRIRIRPPRLPRPRPRPNRIPRP )
-0.481

# get_value(readout='shrunken log2 fold change', item= RRIRARPPRLPRPRPRPQFLPRP )
-0.265

====

- Test system: Escherichia coli TOP10
- Method: shrunken log2 fold change of peptide-encoding DNA abundance (4.5 h post-induction vs induction); higher = less antimicrobial activity (less host growth inhibition)
- Measurement conditions: time post-induction: 4.5 h; library: site-saturation at positions 5, 18, 19, 20
Measured metric: shrunken log2 fold change
Number only, no unit.

Illustrative cases are given below, each with its answer.
INSERT INTO results (input_sequence, test_result) VALUES
  ('RRIRYRPPRLPRPRPRPKQAPRP', 0.0341),
  ('RRIRWRPPRLPRPRPRPDTSPRP', 0.0558),
  ('RRIRERPPRLPRPRPRPVLSPRP', -0.101),
  ('RRIRYRPPRLPRPRPRPGKFPRP', -0.0427),
  ('RRIRRRPPRLPRPRPRPHCYPRP', 0.0243),
  ('RRIRNRPPRLPRPRPRPSFQPRP', -0.274);

# get_value(readout='shrunken log2 fold change', item= RRIRERPPRLPRPRPRPIKMPRP )
-0.347

# get_value(readout='shrunken log2 fold change', item= RRIRMRPPRLPRPRPRPIESPRP )
0.000778

====

- Tested on: Escherichia coli TOP10
- Method: shrunken log2 fold change of peptide-encoding DNA abundance (4.5 h post-induction vs induction); higher = less antimicrobial activity (less host growth inhibition)
- Measurement conditions: time post-induction: 4.5 h; library: site-saturation at positions 5, 18, 19, 20
# Lookup of reported shrunken log2 fold change keyed by entry
Number only, no unit.

Illustrative cases are given below, each with its answer.
INSERT INTO assay_data (input_sequence, measured_metric, test_result) VALUES
  ('RRIRIRPPRLPRPRPRPRQTPRP', 'shrunken log2 fold change', -0.0527),
  ('RRIRCRPPRLPRPRPRPAMPPRP', 'shrunken log2 fold change', -0.054),
  ('RRIRIRPPRLPRPRPRPWMVPRP', 'shrunken log2 fold change', -0.619),
  ('RRIRDRPPRLPRPRPRPNCRPRP', 'shrunken log2 fold change', 0.0111);

# get_value(readout='shrunken log2 fold change', item= RRIRRRPPRLPRPRPRPQNCPRP )
-0.275

# get_value(readout='shrunken log2 fold change', item= RRIRHRPPRLPRPRPRPPSVPRP )
0.241

# get_value(readout='shrunken log2 fold change', item= RRIRYRPPRLPRPRPRPNLTPRP )
-0.372

# get_value(readout='shrunken log2 fold change', item= RRIRFRPPRLPRPRPRPNSFPRP )
-0.894

# get_value(readout='shrunken log2 fold change', item= RRIRRRPPRLPRPRPRPDPHPRP )
0.296

# get_value(readout='shrunken log2 fold change', item= RRIRHRPPRLPRPRPRPSFPPRP )
-0.207

# get_value(readout='shrunken log2 fold change', item= RRIRYRPPRLPRPRPRPGDHPRP )
0.0294

# get_value(readout='shrunken log2 fold change', item= RRIRWRPPRLPRPRPRPAAMPRP )
0.604

====

- Test system: Escherichia coli TOP10
- Method: shrunken log2 fold change of peptide-encoding DNA abundance (4.5 h post-induction vs induction); higher = less antimicrobial activity (less host growth inhibition)
- Measurement conditions: time post-induction: 4.5 h; library: site-saturation at positions 5, 18, 19, 20
# Lookup of reported shrunken log2 fold change keyed by entry
Number only, no unit.

Illustrative cases are given below, each with its answer.
INSERT INTO assay_data (input_sequence, test_result) VALUES
  ('RRIRSRPPRLPRPRPRPNCNPRP', -0.473),
  ('RRIRDRPPRLPRPRPRPCWWPRP', 0.249),
  ('RRIRFRPPRLPRPRPRPVYRPRP', -0.285);

# get_value(readout='shrunken log2 fold change', item= RRIRWRPPRLPRPRPRPTSFPRP )
-0.0166

# get_value(readout='shrunken log2 fold change', item= RRIRTRPPRLPRPRPRPGTVPRP )
0.0209

# get_value(readout='shrunken log2 fold change', item= RRIRLRPPRLPRPRPRPLMMPRP )
-0.164

# get_value(readout='shrunken log2 fold change', item= RRIRERPPRLPRPRPRPLEAPRP )
0.105

# get_value(readout='shrunken log2 fold change', item= RRIRFRPPRLPRPRPRPENQPRP )
-0.00277

====

- System: Escherichia coli TOP10
- Method: shrunken log2 fold change of peptide-encoding DNA abundance (4.5 h post-induction vs induction); higher = less antimicrobial activity (less host growth inhibition)
- Measurement conditions: time post-induction: 4.5 h; library: site-saturation at positions 5, 18, 19, 20
Range-based classes on measured shrunken log2 fold change: bin 1: < -0.002; bin 2: ≥ -0.002 and < 0.1; bin 3: ≥ 0.1

Study these solved cases before continuing.
INSERT INTO assay_data (input_sequence, classification) VALUES
  ('RRIRGRPPRLPRPRPRPSECPRP', 'bin 3'),
  ('RRIRKRPPRLPRPRPRPRTRPRP', 'bin 3'),
  ('RRIRDRPPRLPRPRPRPALIPRP', 'bin 3');

Which class is correct for the following sequence? RRIRYRPPRLPRPRPRPLCYPRP
bin 1

Which class is correct for the following sequence? RRIRHRPPRLPRPRPRPDAMPRP
bin 2

====

- System: Escherichia coli TOP10;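 further: peptides expressed intracellularly from a pBAD plasmid library in pooled LB shake-flask culture, induced with 0.3% L-arabinose, DNA abundance read by NGS, three biological replicates, DESeq2 with apeglm shrinkage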
- Method: shrunken log2 fold change of peptide-encoding DNA abundance (4.5 h post-induction vs induction); higher = less antimicrobial activity (less host growth inhibition)
- Measurement conditions: time post-induction: 4.5 h; library: site-saturation at positions 5, 18, 19, 20
Measured metric: shrunken log2 fold change
Number only, no unit.

Illustrative cases are given below, each with its answer.
INSERT INTO results (input_sequence, test_result) VALUES
  ('RRIRDRPPRLPRPRPRPKIMPRP', 0.199),
  ('RRIRGRPPRLPRPRPRPWPAPRP', 0.763),
  ('RRIRRRPPRLPRPRPRPPAGPRP', 0.753);

# get_value(readout='shrunken log2 fold change', item= RRIRNRPPRLPRPRPRPQCWPRP )
0.057

# get_value(readout='shrunken log2 fold change', item= RRIRDRPPRLPRPRPRPLSLPRP )
0.0554

# get_value(readout='shrunken log2 fold change', item= RRIRNRPPRLPRPRPRPHTCPRP )
0.0167

# get_value(readout='shrunken log2 fold change', item= RRIRDRPPRLPRPRPRPVVIPRP )
2.82

# get_value(readout='shrunken log2 fold change', item= RRIRSRPPRLPRPRPRPTMTPRP )
0.391

# get_value(readout='shrunken log2 fold change', item= RRIRYRPPRLPRPRPRPPFMPRP )
-0.422

# get_value(readout='shrunken log2 fold change', item= RRIRHRPPRLPRPRPRPIWGPRP )
0.226

# get_value(readout='shrunken log2 fold change', item= RRIRKRPPRLPRPRPRPKVPPRP )
0.225

# get_value(readout='shrunken log2 fold change', item= RRIRWRPPRLPRPRPRPGIHPRP )
0.11

# get_value(readout='shrunken log2 fold change', item= RRIRFRPPRLPRPRPRPFHDPRP )
-0.149

# get_value(readout='shrunken log2 fold change', item= RRIRIRPPRLPRPRPRPISQPRP )
-0.961

# get_value(readout='shrunken log2 fold change', item= RRIRKRPPRLPRPRPRPLIKPRP )
-0.338

# get_value(readout='shrunken log2 fold change', item= RRIRVRPPRLPRPRPRPNHDPRP )
-0.369

# get_value(readout='shrunken log2 fold change', item= RRIRARPPRLPRPRPRPVTKPRP )
0.128

# get_value(readout='shrunken log2 fold change', item= RRIRGRPPRLPRPRPRPADMPRP )
0.373

# get_value(readout='shrunken log2 fold change', item= RRIRKRPPRLPRPRPRPTKWPRP )
0.172

# credit: the supplement of paper PMC9112550
